experiment: in vitro; settings: human
Observed Property: IC50 at 72 h

- C=C(C)[C@@H]1CC[C@]2(C(=O)O)CC[C@]3(C)[C@H](CC[C@@H]4[C@@]5(C)C[C@@H](O)[C@H](OC(=O)/C=C/c6ccc(O)cc6)C(C)(C)[C@@H]5CC[C@]43C)[C@@H]12 [Compound 7]: > 10 µM
